# Test system: 4 PI3K isoforms (Human recombinant GST-PI3K)
# Protocol Text: PI3K scintillation proximity assay, best IC50 obtained with the four isoforms (alpha, beta, delta, gamma)
# Type: biochemical
# Condition Set: best IC50 obtained with the four isoforms of PI3K; read-out: Best potency measured on the 4 PI3K isoforms
pIC50: −log10 of the molar value.
Quantity Name: pIC50

Known results for compounds:
| Compound | pIC50 |
| --- | --- |
| O=C(c1nn(-c2ccc(CN3CCOCC3)nc2)c2c1CS(=O)(=O)c1ccccc1-2)N1CCOCC1 [Example 216] | 6.21 |
| O=C(c1nn(-c2cccc(Cn3ccnc3)c2)c2c1CS(=O)(=O)c1ccccc1-2)N1CCOCC1 [Example 291] | 6.17 |
| O=C(c1nn(C2CCN(CCn3cccn3)C2)c2c1CS(=O)(=O)c1ccccc1-2)N1CCOCC1 (stereo not drawn) [Example 286] | 6.59 |
| O=C(c1nn(C2CCCN(c3ccccc3)C2)c2c1CS(=O)(=O)c1ccccc1-2)N1CCOCC1 (stereo not drawn) [Example 218] | 6.33 |

I = O=C(CC1CCOCC1)N1CCC[C@H](n2nc(C(=O)N3CCOCC3)c3c2-c2ccccc2S(=O)(=O)C3)C1 [Example 398]
II = O=C(c1nn(-c2ccccc2Cl)c2c1CS(=O)(=O)c1ccccc1-2)N1CCOCC1 [Example 22]
Of I and II , whose reported pIC50 is the larger number? Answer by stating the label of the chosen item. I

* * *

# System: 4 PI3K isoforms (Human recombinant GST-PI3K)
# Protocol Text: PI3K scintillation proximity assay, best IC50 obtained with the four isoforms (alpha, beta, delta, gamma)
# Type: biochemical
# Condition Set: best IC50 obtained with the four isoforms of PI3K; read-out: Best potency measured on the 4 PI3K isoforms
Quantity Name: IC50 (nM)

I = Cc1ccc2c(c1)-c1c(c(C(=O)N3CCOCC3)nn1-c1ccccc1)CS2(=O)=O
II = O=C(c1nn(C2CCC(CN3CCOCC3)CC2)c2c1CS(=O)(=O)c1ccccc1-2)N1CCOCC1 (stereo not drawn)
Select the item whose IC50 value is smaller, choosing between I and II . Answer by stating the label of the chosen item. II
(II: 912 nM, I: 1500 nM)
